Target: hmGlu4 (Homo sapiens, UniProt Q14833)
Sequence (Q14833 33-912): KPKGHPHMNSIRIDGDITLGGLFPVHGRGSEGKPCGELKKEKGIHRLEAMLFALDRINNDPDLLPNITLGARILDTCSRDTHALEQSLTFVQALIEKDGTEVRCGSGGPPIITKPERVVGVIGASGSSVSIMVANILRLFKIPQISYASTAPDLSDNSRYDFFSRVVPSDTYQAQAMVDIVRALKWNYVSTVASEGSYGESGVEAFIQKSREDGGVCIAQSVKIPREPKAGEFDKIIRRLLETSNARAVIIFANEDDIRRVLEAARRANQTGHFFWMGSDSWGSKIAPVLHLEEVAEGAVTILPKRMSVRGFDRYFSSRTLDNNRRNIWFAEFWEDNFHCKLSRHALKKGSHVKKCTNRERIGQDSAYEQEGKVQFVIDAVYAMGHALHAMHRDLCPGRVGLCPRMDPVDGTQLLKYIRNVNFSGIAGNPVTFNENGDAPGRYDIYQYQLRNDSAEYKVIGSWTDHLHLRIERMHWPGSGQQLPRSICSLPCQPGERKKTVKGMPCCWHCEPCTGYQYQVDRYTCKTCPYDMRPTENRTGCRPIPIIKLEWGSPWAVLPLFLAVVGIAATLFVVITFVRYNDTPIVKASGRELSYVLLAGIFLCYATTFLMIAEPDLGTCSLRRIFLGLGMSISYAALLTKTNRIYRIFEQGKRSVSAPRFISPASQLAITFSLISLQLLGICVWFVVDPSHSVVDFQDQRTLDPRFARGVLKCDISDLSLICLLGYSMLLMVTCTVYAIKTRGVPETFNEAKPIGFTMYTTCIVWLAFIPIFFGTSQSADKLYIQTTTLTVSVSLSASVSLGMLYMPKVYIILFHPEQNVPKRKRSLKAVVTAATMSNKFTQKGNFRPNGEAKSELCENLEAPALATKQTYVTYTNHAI
Assay: mGlu4 counter-screen
Format: cell-based
Settings: selectivity mGlu1 versus mGlu4
reported metric: Fold versus mGlu4

Below, 3 compounds whose answers are already recorded.
[[record]]
compound = "Cc1scnc1C(=O)Nc1ccc(N2C(=O)c3cccnc3C2=O)c(Cl)c1 [11n]"
test_value = ">52 fold"

[[record]]
compound = "Cc1scnc1C(=O)Nc1ccc(N2C(=O)c3cccc(Cl)c3C2=O)c(Cl)c1 [11k]"
test_value = ">7.3 fold"

[[record]]
compound = "Cc1cn[nH]c1C(=O)Nc1ccc(N2C(=O)c3cccc(C)c3C2=O)c(Cl)c1 [11w]"
test_value = ">2 fold"


Proceeding to the next compound to report its Fold versus mGlu4.
Q. Given Cc1cn[nH]c1C(=O)Nc1ccc(N2C(=O)c3cccc(F)c3C2=O)c(Cl)c1 [11aa] , respond with its Fold versus mGlu4.
A. >16 fold
